- assayed-target: T1, GLP-1R (INS1e assay) (UniProt P32301 22-463, limits assumed)
- T1 sequence (looked up): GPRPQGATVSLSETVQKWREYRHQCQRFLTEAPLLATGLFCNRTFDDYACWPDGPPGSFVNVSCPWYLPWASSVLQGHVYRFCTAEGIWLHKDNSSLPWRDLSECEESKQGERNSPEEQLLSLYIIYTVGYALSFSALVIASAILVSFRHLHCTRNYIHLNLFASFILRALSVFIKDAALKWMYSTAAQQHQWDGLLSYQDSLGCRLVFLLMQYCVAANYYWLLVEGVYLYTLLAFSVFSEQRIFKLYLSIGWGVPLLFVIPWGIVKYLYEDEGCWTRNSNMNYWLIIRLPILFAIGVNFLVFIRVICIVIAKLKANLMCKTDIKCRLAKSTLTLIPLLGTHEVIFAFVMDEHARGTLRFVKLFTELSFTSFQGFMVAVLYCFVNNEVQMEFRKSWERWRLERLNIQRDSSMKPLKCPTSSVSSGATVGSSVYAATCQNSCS
- run-description: cell-based or functional assay
Starred links: 1 amine or outer side, 2 acyl side, 3 side chain; linkers in the order of their positions; H or OH if unused. Non-standard residues stand in square brackets, D forms with d. Groups on a side chain read outwards from the residue. Primed or numbered codes have the meaning given here. No end group written: not given here. *: point of attachment. Dodecanoyl(12-OPh(4-COOH)) = O=C(O)c1ccc(OCCCCCCCCCCCC(=O)*)cc1; Dodecylbenzoate = dodecylbenzoyl lipid group; γGlu = O=C(O)[C@H](CCC(=O)[*:2])N[*:1]; Stearoyl = CCCCCCCCCCCCCCCCCC(=O)*; αMeF = C[C@](N)(Cc1ccccc1)C(=O)O; αMeK = C[C@](N)(CCCCN)C(=O)O; Lauroyl = CCCCCCCCCCCC(=O)*; αMeS = C[C@](N)(CO)C(=O)O; PEG2′ = not defined here; Aib = CC(C)(N)C(=O)O
experimental-readout: INS1e assay EC50 Mean pM GLP-1R (pM)

I. H[Aib]EGS[αMeF]TSDV[αMeS]S[αMeF]LEGEAA[αMeK]E[αMeF]IA[αMeF]VVK([PEG2′-PEG2′-PEG2′-Stearoyl])GG-NH2 [SEQ ID NO 199]
II. H[Aib]EGS[αMeF]TSDV[αMeS]S[αMeF]LEGEAAK([PEG2′-PEG2′-γGlu-Stearoyl])E[αMeF]IA[αMeF]VV[αMeK]GG-NH2 [SEQ ID NO 3]
III. H[Aib]EGS[αMeF]TSDV[αMeS]S[αMeF]LEGEAA[αMeK]E[αMeF]IA[αMeF]VVK([PEG2′-PEG2′-PEG2′-Dodecylbenzoate])GG-NH2 [SEQ ID NO 181]
IV. H[Aib]EGS[αMeF]TSDV[αMeS]S[αMeF]LEGEAA[αMeK]E[αMeF]IK([PEG2′-PEG2′-γGlu-Stearoyl])[αMeF]VV[αMeK]GG-NH2 [SEQ ID NO 105]
Prompt line: Ordering: ascending INS1e assay EC50 Mean pM GLP-1R. Thanks in advance for listing the labels in the requested order.
Response line: III, IV, I, II
(III: 79.7 pM, IV: 970 pM, I: 1460 pM, II: 3680 pM)

I. H[Aib]EGS[αMeF]TSDV[αMeS]S[αMeF]LEGEAAK([PEG2′-Dodecanoyl(12-OPh(4-COOH))])E[αMeF]IA[αMeF]VV[αMeK]GG-NH2 [SEQ ID NO 143]
II. H[Aib]EGS[αMeF]TSDV[αMeS]S[αMeF]LEGEAA[αMeK]E[αMeF]IA[αMeF]VV[αMeK]GK([PEG2′-PEG2′-γGlu-Stearoyl])-NH2 [SEQ ID NO 99]
III. H[Aib]EGS[αMeF]TSDV[αMeS]S[αMeF]LEGEAA[αMeK]E[αMeF]IA[αMeF]VVK([PEG2′-Lauroyl])GG-NH2 [SEQ ID NO 170]
Prompt line: Sort by INS1e assay EC50 Mean pM GLP-1R, descending. Return the labels ranked in the requested order, please.
Response line: II, III, I
(II: 8440 pM, III: 462 pM, I: 34 pM)

P. H[Aib]EGS[αMeF]TSDV[αMeS]S[αMeF]K([PEG2′-PEG2′-γGlu-Stearoyl])EGEAA[αMeK]E[αMeF]IA[αMeF]VV[αMeK]GG-NH2 [SEQ ID NO 115]
Q. H[Aib]EGS[αMeF]TSDV[αMeS]S[αMeF]LEGEAK([PEG2′-PEG2′-γGlu-Stearoyl])[αMeK]E[αMeF]IA[αMeF]VV[αMeK]GG-NH2 [SEQ ID NO 110]
Prompt line: Could you kindly indicate whether P or Q has the higher INS1e assay EC50 Mean pM GLP-1R value? Pick one and reply with its label.
Response line: Q

A. H[Aib]EGS[αMeF]TSDV[αMeS]S[αMeF]LEGEAAKEFIK([PEG2′-PEG2′-γGlu-Stearoyl])WVVEGG-NH2 [SEQ ID NO 65]
B. H[Aib]EGS[αMeF]TSDV[αMeS]S[αMeF]LEGEAAAEFIK([PEG2′-PEG2′-γGlu-Stearoyl])WVVEGG-NH2 [SEQ ID NO 69]
C. H[Aib]EGS[αMeF]TSDV[αMeS]S[αMeF]LEGEAA[αMeK]E[αMeF]IA[αMeF]VV[αMeK]K([PEG2′-PEG2′-γGlu-Stearoyl])G-NH2 [SEQ ID NO 100]
D. HXEGTFTSDVSSYLEGQAAKEFIAWLVKGRK (Aib2; K(ε-(PEG)2-(PEG)2-γE-Stearate) after R30; C-terminal amide) [SEQ ID NO 6]
Prompt line: Order by INS1e assay EC50 Mean pM GLP-1R, ascending. List each label, following the requested order.
Response line: D, C, A, B
(D: 122 pM, C: 822 pM, A: 3160 pM, B: 22100 pM)
